# study_target: HLA-B*35:01
# protocol_summary: IEDB peptide-MHC binding, purified MHC/competitive/radioactivity; filed as Kd, often an IC50 or EC50 that approximates it; bounds were set here for any values at or beyond the usual limits of such assays
# condition: source organism: Mammarenavirus machupoense
pKd: −log10 of the molar value.
measure_name: pKd

# ordered_residues, measure_name, endpoint_value
measured = [
    ("LPTSITVPV", "pKd", 8.45),
]

---

# study_target: HLA-A*33:01
# protocol_summary: IEDB peptide-MHC binding, purified MHC/competitive/radioactivity; filed as Kd, often an IC50 or EC50 that approximates it; bounds were set here for any values at or beyond the usual limits of such assays
# condition: source organism: Vaccinia virus WR
Field: label. Allowed values: Yes (Kd < 2 µM) or No (Kd >= 2 µM).

# ordered_residues, label_value
rows = [
    ("LVYIFEPEK", "No"),
    ("WLYYNQDVQR", "Yes"),
    ("GSSKGNCAIK", "No"),
    ("VAEHRFENMK", "No"),
    ("DIFMRDWNSK", "Yes"),
    ("IISIRPRVTK", "No"),
    ("DILSIIDAK", "Yes"),
    ("TMPNESRVK", "No"),
    ("KLILAEYIR", "No"),
    ("GVRVRVAVNK", "No"),
    ("RSAFNDDGIY", "No"),
    ("DLLFNEKLK", "Yes"),
    ("AVNKSNKPLK", "No"),
    ("VIEYAKSISK", "No"),
    ("DSDVSLIIEY", "No"),
    ("STAEQLSKY", "No"),
    ("TVENNIDFLK", "No"),
    ("ITSTKTIEY", "No"),
    ("VTPEYIKDLK", "No"),
    ("DFRDYQSYR", "Yes"),
    ("EIARIENEMK", "No"),
    ("HIIDSFNIR", "Yes"),
    ("TIDNPTKYIR", "No"),
    ("KFAEESYTY", "No"),
    ("CIRNASKFVY", "No"),
    ("PAGRPNYVK", "No"),
    ("KSIENKHQR", "Yes"),
    ("SMTIREFPRK", "No"),
    ("NIVTDLENR", "Yes"),
]

---

# study_target: HLA-B*44:03
# protocol_summary: IEDB peptide-MHC binding, purified MHC/competitive/radioactivity; filed as Kd, often an IC50 or EC50 that approximates it; bounds were set here for any values at or beyond the usual limits of such assays
# condition: source organism: SARS coronavirus Tor2
pKd: −log10 of the molar value.
Label y for high-side pKd (at or above 7) and n for low-side pKd (below it).

# ordered_residues, study_target, label_value
data = [
    ("SEQSLRLVDA", "HLA-B*44:03", "n"),
    ("AEWVLAYML", "HLA-B*44:03", "y"),
    ("PEFYEAMYT", "HLA-B*44:03", "n"),
    ("VETVSLAGSY", "HLA-B*44:03", "n"),
    ("AEAAVKPLLA", "HLA-B*44:03", "y"),
]
